Here, each record is paired with measured Emax data.
# target entity: SIRT1 (Homo sapiens)
# Sequence (Q96EB6 whole entry): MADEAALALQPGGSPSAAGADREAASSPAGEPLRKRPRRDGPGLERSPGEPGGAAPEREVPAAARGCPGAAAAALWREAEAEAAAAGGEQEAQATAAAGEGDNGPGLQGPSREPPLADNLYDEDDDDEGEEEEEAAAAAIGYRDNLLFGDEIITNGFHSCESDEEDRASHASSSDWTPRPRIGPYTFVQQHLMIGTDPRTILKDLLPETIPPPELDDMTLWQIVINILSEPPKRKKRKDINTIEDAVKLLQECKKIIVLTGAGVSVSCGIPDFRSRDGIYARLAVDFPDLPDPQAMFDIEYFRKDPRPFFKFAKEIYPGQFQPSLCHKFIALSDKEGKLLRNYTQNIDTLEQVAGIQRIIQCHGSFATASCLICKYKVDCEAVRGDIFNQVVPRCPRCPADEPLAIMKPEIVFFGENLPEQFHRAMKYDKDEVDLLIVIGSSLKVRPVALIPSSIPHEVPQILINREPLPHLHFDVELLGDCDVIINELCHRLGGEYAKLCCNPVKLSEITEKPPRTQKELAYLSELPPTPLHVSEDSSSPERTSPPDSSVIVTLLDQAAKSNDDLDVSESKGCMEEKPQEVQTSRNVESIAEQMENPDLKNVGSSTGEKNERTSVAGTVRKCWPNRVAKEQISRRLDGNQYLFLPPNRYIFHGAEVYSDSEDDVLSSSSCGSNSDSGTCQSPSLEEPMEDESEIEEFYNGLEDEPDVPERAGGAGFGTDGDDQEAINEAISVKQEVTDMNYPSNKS
# procedure details: Mass spectrometry based assay to identify modulators of SIRT1 activity (deacetylation of p53-based acetylated peptide substrate)
# Type: biochemical
# test parameters: 25 min, SIRT1 activation, read-out: % FOLD ACT. (percent maximum fold activation)

smiles_structure=CN1C(=O)CN(C(=O)Nc2ccncn2)c2nc(-c3cccc(C(F)(F)F)c3)ccc21 measured_result="> 200%"
smiles_structure=Cc1cc(NC(=O)N2CCOc3c(C)cc(-c4cccc(C(F)(F)F)c4)nc32)cc(C)n1 measured_result="> 200%"
smiles_structure=Cc1cncc(NC(=O)N2CCOc3c(C)cc(-c4cccc(Cl)c4)nc32)c1 measured_result="> 200%"

Lab note: next compound to report on.
Exercise: Sample "CCN1CCCN(C(=O)Nc2cc(C)cc(C)n2)c2nc(-c3cccc(Cl)c3)ccc21" — what was its Emax?
Solution: ≤ 200%
